Data origin, for the record: patent US12274264B2

- System: western flower thrips nymphs
- TEST_PROTOCOL: Determination of activity against western flower thrips nymphs (sprayed kidney bean leaves, mortality after 72 hours)
- Assay type: in vivo
- ASSAY_CONDITIONS: Frankliniella occidentalis; 600 mg/L; after 72 hours; read-out: mortality rates against western flower thrips nymphs
The entries below come with measured mortality at 600 µg/mL values attached.

SMILES: O=C(Nc1cccc(C(=O)Nc2c(Cl)cc(C(F)(C(F)(F)F)C(F)(F)F)cc2OC(F)F)c1F)c1ccc2c(c1)OC(F)(F)O2
ASSAY_SYSTEM: western flower thrips nymphs
mortality at 600 µg/mL: > 90%

SMILES: O=C(Nc1cccc(C(=O)Nc2c(I)cc(C(F)(C(F)(F)F)C(F)(F)F)cc2OC(F)F)c1F)c1ccc2c(c1)OC(F)(F)O2
ASSAY_SYSTEM: western flower thrips nymphs
mortality at 600 µg/mL: > 90%

SMILES: CN(C(=O)c1ccc2c(c1)OC(F)(F)O2)c1cccc(C(=O)Nc2c(Br)cc(C(F)(C(F)(F)F)C(F)(F)F)cc2OC(F)(F)F)c1F
ASSAY_SYSTEM: western flower thrips nymphs
mortality at 600 µg/mL: > 90%

----------
- System: western flower thrips nymphs
- TEST_PROTOCOL: Determination of activity against western flower thrips nymphs (sprayed kidney bean leaves, mortality after 72 hours)
- Format: in vivo
- ASSAY_CONDITIONS: Frankliniella occidentalis; 600 mg/L; after 72 hours; read-out: mortality rates against western flower thrips nymphs
VALUE_KIND: mortality at 600 µg/mL

SMILES: CN(C(=O)c1ccc2c(c1)OC(F)(F)O2)c1cccc(C(=O)Nc2c(OC(F)F)cc(C(F)(C(F)(F)F)C(F)(F)F)cc2C(F)(F)F)c1F
VALUE_KIND: mortality at 600 µg/mL
DATA_VALUE: > 90%
//
SMILES: CN(C(=O)c1ccc2c(c1)OC(F)(F)O2)c1cccc(C(=O)Nc2c(I)cc(C(F)(C(F)(F)F)C(F)(F)F)cc2OC(F)F)c1F
VALUE_KIND: mortality at 600 µg/mL
DATA_VALUE: > 90%
//
SMILES: O=C(Nc1c(Br)cc(C(F)(C(F)(F)F)C(F)(F)F)cc1OC(F)F)c1cccc(N(CC2CC2)C(=O)c2ccc3c(c2)OC(F)(F)O3)c1F
VALUE_KIND: mortality at 600 µg/mL
DATA_VALUE: > 90%
//
SMILES: O=C(Nc1cccc(C(=O)Nc2c(Br)cc(C(F)(C(F)(F)F)C(F)(F)F)cc2OC(F)F)c1F)c1ccc2c(c1)OC(F)(F)O2
VALUE_KIND: mortality at 600 µg/mL
DATA_VALUE: > 90%
//
SMILES: O=C(Nc1cccc(C(=O)Nc2c(OC(F)F)cc(C(F)(C(F)(F)F)C(F)(F)F)cc2C(F)(F)F)c1F)c1ccc2c(c1)OC(F)(F)O2
VALUE_KIND: mortality at 600 µg/mL
DATA_VALUE: > 90%
//
SMILES: CN(C(=O)c1ccc2c(c1)OC(F)(F)O2)c1cccc(C(=O)Nc2c(Cl)cc(C(F)(C(F)(F)F)C(F)(F)F)cc2OC(F)F)c1F
VALUE_KIND: mortality at 600 µg/mL
DATA_VALUE: > 90%

----------
- Tested on: western flower thrips nymphs
- TEST_PROTOCOL: Determination of activity against western flower thrips nymphs (sprayed kidney bean leaves, mortality after 72 hours)
- Type: in vivo
- ASSAY_CONDITIONS: Frankliniella occidentalis; 10 mg/L; after 72 hours; read-out: Mortality (%) against Western Flower Thrips Nymphs
The entries below come with measured mortality at 10 µg/mL values attached.
VALUE_KIND: mortality at 10 µg/mL (%)

COMPOUND: CN(C(=O)c1ccccc1)c1cccc(C(=O)Nc2c(Br)cc(C(F)(C(F)(F)F)C(F)(F)F)cc2OC(F)F)c1F
ASSAY_SYSTEM: western flower thrips nymphs
DATA_VALUE: 72
--
COMPOUND: O=C(Nc1cccc(C(=O)Nc2c(Br)cc(C(F)(C(F)(F)F)C(F)(F)F)cc2OC(F)F)c1F)c1ccccc1
ASSAY_SYSTEM: western flower thrips nymphs
DATA_VALUE: 37
--
COMPOUND: CN(C(=O)c1ccc2c(c1)OC(F)(F)O2)c1cccc(C(=O)Nc2c(Br)cc(C(F)(C(F)(F)F)C(F)(F)F)cc2Br)c1F [KC2, reference compound]
ASSAY_SYSTEM: western flower thrips nymphs
DATA_VALUE: 59
--
COMPOUND: O=C(Nc1cccc(C(=O)Nc2c(Br)cc(C(F)(C(F)(F)F)C(F)(F)F)cc2Br)c1F)c1ccc2c(c1)OC(F)(F)O2 [KC1, reference compound]
ASSAY_SYSTEM: western flower thrips nymphs
DATA_VALUE: 15
--
COMPOUND: O=C(Nc1cccc(C(=O)Nc2c(Br)cc(C(F)(C(F)(F)F)C(F)(F)F)cc2OC(F)F)c1F)c1ccc2c(c1)OC(F)(F)O2
ASSAY_SYSTEM: western flower thrips nymphs
DATA_VALUE: 90
--
COMPOUND: CN(C(=O)c1ccc2c(c1)OC(F)(F)O2)c1cccc(C(=O)Nc2c(Br)cc(C(F)(C(F)(F)F)C(F)(F)F)cc2OC(F)F)c1F
ASSAY_SYSTEM: western flower thrips nymphs
DATA_VALUE: 91
